measured_on: TNFα / TNFα receptor (TNFα R1/Fc) (Homo sapiens, UniProt P01375)
Construct: purchased R&D Systems
Sequence (P01375 77-233 limits assumed, species assumed): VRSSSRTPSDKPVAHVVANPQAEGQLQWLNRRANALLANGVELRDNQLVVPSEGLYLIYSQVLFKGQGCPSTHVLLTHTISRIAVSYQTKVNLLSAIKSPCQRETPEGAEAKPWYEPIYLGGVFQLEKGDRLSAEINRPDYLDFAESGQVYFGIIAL
test_summary: Inhibition of binding of TNFα to the TNFα receptor (plate ELISA competition)
details: Table 2; read-out: Activity (IC50, inhibition of TNFα binding to TNFα R1/Fc)
Numbered stars: 1 amine (or outer) side, 2 acyl side, 3 side chain; on linkers, the order of the positions; unused ones are H or OH. Bridge positions count the residues as written; N and C are the ends. Square brackets hold non-standard residues; d marks the D form. Peptide text beside a SMILES is read from it. * marks the point of attachment. Bip = N[C@@H](Cc1ccc(-c2ccccc2)cc1)C(=O)O; Phe(4-NH2) = Nc1ccc(C[C@H](N)C(=O)O)cc1; d2Thi = N[C@H](Cc1cccs1)C(=O)O; Suc = O=C(CCC(=O)[*:2])[*:1]; OtBu = CC(C)(C)O*
observable: IC50

Input O=C(O)[C@@H]1Cc2ccc(cc2)NC(=O)[C@H](O)[C@@H](O)C(=O)N[C@H](Cc2cccnc2)C(=O)N[C@@H](Cc2ccc(-c3ccccc3)cc2)C(=O)N[C@H](Cc2ccccc2)C(=O)N1 . Output IC50: 30 to 100 µM

Input C[C@H](NC(=O)[C@@H]1Cc2ccc(cc2)NC(=O)CCC(=O)N[C@H](Cc2cccs2)C(=O)N[C@@H](Cc2ccc(-c3ccccc3)cc2)C(=O)N[C@H](Cc2ccccc2)C(=O)N1)C(=O)O [Compound 20] ([d2Thi][Bip][dF][Phe(4-NH2)]A-OH; linker N-4 via Suc) . Output IC50: < 10 µM

Input O=C(O)[C@@H]1Cc2ccc(cc2)NC(=O)[C@H](O)[C@@H](O)C(=O)N[C@H](Cc2cccs2)C(=O)N[C@@H](Cc2ccc3ccccc3c2)C(=O)N[C@H](Cc2ccccc2)C(=O)N1 . Output IC50: 10 to 30 µM

Input COc1cccc(C[C@H]2NC(=O)[C@H](Cc3cccs3)NC(=O)COc3ccc(cc3)C[C@@H](C(=O)O)NC(=O)[C@H](Cc3ccccc3)NC2=O)c1 . Output IC50: > 100 µM

Input CC(C)(C)OC(=O)CC[C@@H]1NC(=O)[C@H](Cc2ccc(-c3ccccc3)cc2)NC(=O)[C@@H](Cc2cccs2)NC(=O)CCC(=O)Nc2ccc(cc2)C[C@@H](C(=O)O)NC1=O [Compound 66] ([d2Thi][Bip]E(OtBu)[Phe(4-NH2)]-OH; linker N-4 via Suc) . Output IC50: > 100 µM

----------
measured_on: TNFα / TNFα receptor (TNFα R1/Fc) (Homo sapiens, UniProt P01375)
Construct: purchased R&D Systems
test_summary: Inhibition of binding of TNFα to the TNFα receptor (plate ELISA competition)
details: Table 2; read-out: Activity (IC50, inhibition of TNFα binding to TNFα R1/Fc)
pIC50: −log10 of the molar value. Numbered stars: 1 amine (or outer) side, 2 acyl side, 3 side chain; on linkers, the order of the positions; unused ones are H or OH. Bridge positions count the residues as written; N and C are the ends. Square brackets hold non-standard residues; d marks the D form. Peptide text beside a SMILES is read from it. Bip = N[C@@H](Cc1ccc(-c2ccccc2)cc1)C(=O)O; Phe(4-NH2) = Nc1ccc(C[C@H](N)C(=O)O)cc1; 2Nal = N[C@@H](Cc1ccc2ccccc2c1)C(=O)O; d(hPhe) = N[C@H](CCc1ccccc1)C(=O)O; hPhe = N[C@@H](CCc1ccccc1)C(=O)O; d3Pal = N[C@H](Cc1cccnc1)C(=O)O; d2Thi = N[C@H](Cc1cccs1)C(=O)O; Suc = O=C(CCC(=O)[*:2])[*:1]
observable: pIC50

Input O=C(O)[C@H](Cc1ccccc1)NC(=O)[C@@H]1Cc2ccc(cc2)NC(=O)[C@H](O)[C@@H](O)C(=O)N[C@H](Cc2cccs2)C(=O)N[C@@H](Cc2ccc(-c3ccncc3)cc2)C(=O)N[C@H](Cc2ccccc2)C(=O)N1 [Compound 442] . Output pIC50: > 5.00

Input O=C1CCC(=O)N[C@H](CCc2ccccc2)C(=O)N[C@@H](Cc2ccc3ccccc3c2)C(=O)N[C@H](Cc2ccccc2)C(=O)N[C@H](C(=O)O)Cc2ccc(cc2)N1 [Compound 109] ([d(hPhe)][2Nal][dF][Phe(4-NH2)]-OH; linker N-4 via Suc) . Output pIC50: 4.52 to 5.00

Input O=C1CCC(=O)N[C@H](Cc2cccnc2)C(=O)N[C@@H](Cc2ccc(-c3ccccc3)cc2)C(=O)N[C@H](Cc2ccccc2)C(=O)N[C@H](C(=O)O)Cc2ccc(cc2)N1 [Compound 126] ([d3Pal][Bip][dF][Phe(4-NH2)]-OH; linker N-4 via Suc) . Output pIC50: < 4.00

Input O=C1CCC(=O)N[C@H](Cc2cccs2)C(=O)N[C@@H](CCc2ccccc2)C(=O)N[C@H](Cc2ccccc2)C(=O)N[C@H](C(=O)O)Cc2ccc(cc2)N1 [Compound 91] ([d2Thi][hPhe][dF][Phe(4-NH2)]-OH; linker N-4 via Suc) . Output pIC50: < 4.00
